# TARGET_OR_SYSTEM: T1, 人B7-H3变体1(4Ig-B7-H3) on stable cells 293-h4Ig-B7-H3-copGFP (human, UniProt Q5ZPR3 29-534)
# T1 construct: Full-length CDS cloned in pCDH-EF1-T2A-copGFP and expressed on stably transduced cells; residues left by T2A cleavage not described
# T1 sequence: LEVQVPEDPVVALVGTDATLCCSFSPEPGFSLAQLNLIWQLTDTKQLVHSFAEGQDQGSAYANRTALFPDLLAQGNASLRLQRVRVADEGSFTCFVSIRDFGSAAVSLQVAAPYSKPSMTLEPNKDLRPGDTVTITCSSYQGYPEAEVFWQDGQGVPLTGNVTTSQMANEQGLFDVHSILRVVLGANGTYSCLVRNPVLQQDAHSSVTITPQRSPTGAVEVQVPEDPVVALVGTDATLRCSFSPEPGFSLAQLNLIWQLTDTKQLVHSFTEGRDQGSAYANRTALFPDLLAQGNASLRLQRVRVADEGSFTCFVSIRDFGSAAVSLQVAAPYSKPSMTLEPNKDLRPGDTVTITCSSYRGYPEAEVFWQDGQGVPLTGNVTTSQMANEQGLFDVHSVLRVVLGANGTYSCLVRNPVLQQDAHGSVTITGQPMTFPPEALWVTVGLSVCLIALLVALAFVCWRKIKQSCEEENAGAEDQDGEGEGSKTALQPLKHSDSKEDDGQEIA
# ASSAY_METHOD_TEXT: FACS, 293-h4Ig-B7-H3-copGFP stable cells
OBSERVATION_TYPE: binding result

- scFv-27B4-H4-L2 (scFv, Expressed from phage display vector pXY in TG1, purified on a nickel column) scFv: EVQLVQSGAEVKKPGESLKISCKASGYTFTTYWIGWVRQMPGKGLEWMGIIYPGDGGSRYSPSFQGQVTISADKSISTAYLQWSSLKASDTAMYYCARGGNYISFPMYYWGQGTLVTVSSGGGGSGGGGSGGGGSGGGGASVIWMTQSPSLLSASTGDRVTISCKASRGVSTALAWYQQKPGKAPELLIYWASTLQSGVPSRFSGSGSGTDFTLTISCLQSEDFATYYCQQHYDTPYTFGQGTKLEIK: binds
- scFv-27B4-H2-L1 (scFv, VH-linker-VL in phage display vector pXY, expressed in TG1, purified on a nickel column) scFv: QVQLVQSGAEVKKPGSSVKVSCKASGYTFTTYWISWVRQAPGQGLEWMGGIYPGDGGSNYAQKFQGRVTITADESTSTAYMELSSLRSEDTAVYYCARGGNYISFPMYYWGQGTLVTVSSGGGGSGGGGSGGGGSGGGGASDIQMTQSPSSLSASMGDRVTITCKASRGVSTALNWYQQKPGKAPKLLIYWASSLQSGVPSRFSGSGSGTDFTLTISSLQPEDFATYYCQQHYDTPYTFGQGTKLEIK: binds
- scFv-27B4-H2-L3 (scFv, Expressed from phage display vector pXY in TG1, purified on a nickel column) scFv: QVQLVQSGAEVKKPGSSVKVSCKASGYTFTTYWISWVRQAPGQGLEWMGGIYPGDGGSNYAQKFQGRVTITADESTSTAYMELSSLRSEDTAVYYCARGGNYISFPMYYWGQGTLVTVSSGGGGSGGGGSGGGGSGGGGASEIVMTQSPATLSVSPGERATLSCKASRGVSTALAWYQQKPGQAPRLLIYWASTRATGIPARFSGSGSGTEFTLTISSLQSEDFAVYYCQQHYDTPYTFGQGTKLEIK: binds
